Provenance of the data: patent US7973024B2

Target: CYP24 (Homo sapiens, UniProt Q07973)
Construct: expressed in transfected cells
Sequence (Q07973 36-514): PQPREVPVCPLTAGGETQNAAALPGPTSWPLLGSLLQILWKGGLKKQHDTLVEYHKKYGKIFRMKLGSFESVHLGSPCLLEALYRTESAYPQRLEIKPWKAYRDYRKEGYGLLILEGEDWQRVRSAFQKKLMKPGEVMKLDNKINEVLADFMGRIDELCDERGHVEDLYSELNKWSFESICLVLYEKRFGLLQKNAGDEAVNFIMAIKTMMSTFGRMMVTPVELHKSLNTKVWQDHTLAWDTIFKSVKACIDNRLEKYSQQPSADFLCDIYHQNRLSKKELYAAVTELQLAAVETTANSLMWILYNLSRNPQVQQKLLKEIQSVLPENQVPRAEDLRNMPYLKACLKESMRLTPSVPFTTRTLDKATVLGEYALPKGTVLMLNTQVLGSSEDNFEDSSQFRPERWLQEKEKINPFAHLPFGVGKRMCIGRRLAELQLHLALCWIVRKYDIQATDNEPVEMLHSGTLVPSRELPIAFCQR
Test: CYP24 enzyme assay (induced HPK1A-ras cells)
Assay type: cell-based
Details: HPK1A-ras cells induced with 1,25(OH)2D3; [3H]-1,25(OH)2D3 substrate, 2 hour
attribute.measured: IC50 (nM)
Answers are plain numbers, in nM.

Some compounds with known IC50 results, for comparison:
| compound | quantitative.readout |
| --- | --- |
| C=C1/C(=C\C=C2/CCC[C@]3(C)[C@@H]([C@H](C)CCS(=N)(=O)c4ccccc4)CC[C@@H]23)C[C@@H](O)C[C@@H]1O (single isomer, unassigned) [I(a)] | 5 |
| C=C1/C(=C\C=C2/CCC[C@]3(C)[C@@H]([C@H](C)CCS(=N)(=O)c4ccccc4)CC[C@@H]23)C[C@@H](O)C[C@@H]1O (single isomer, unassigned) [I(c)] | 33 |
| C=C1/C(=C\C=C2/CCC[C@]3(C)[C@@H]([C@H](C)CCS(=O)(=NC)c4ccccc4)CC[C@@H]23)C[C@@H](O)C[C@@H]1O (single isomer, unassigned) [I(e)] | 66 |

Now look at this one.
Request: // IC50 lookup, key: C=C1/C(=C\C=C2/CCC[C@]3(C)[C@@H]([C@H](C)CCS(=O)(=NC)c4ccccc4)CC[C@@H]23)C[C@@H](O)C[C@@H]1O (single isomer, unassigned) [I(g)]
Result: 20
